- protocol.notes: Lipid nanoparticle size and polydispersity by dynamic light scattering
- Assay type: physicochemical
- test.settings: LNP of lipid/DSPC/cholesterol/PEG-lipid 50:10:38.5:1.5 encapsulating hEPO mRNA
Answer FALSE if polydispersity is under 0.07, and TRUE if it is 0.07 or more.

A selection of reference data follows.
Kindly determine if polydispersity recorded for CCCCCCCCCCCC(=O)OCC(CCCCN(CCO)CCN(CCCCC(COC(=O)CCCCCCCCCCC)COC(=O)CCCCCCCCCCC)C1CCC1)COC(=O)CCCCCCCCCCC [Compound 169] is above or exactly 0.07.
TRUE

Lookup CCCCCCCCC(CCCCCC)COC(=O)CCCCCN(C)CCN(CCO)CCCCC(COC(=O)CCCCCCC)COC(=O)CCCCCCC (stereo not drawn) [Compound 156]
TRUE

Moving on to the next compound: CCCCCCCCC(CCCCCC)CNC(=O)CCCCCCN(CCO)CCN(CCCCC(COC(=O)CCCCCCC)COC(=O)CCCCCCC)C1CCCC1 (stereo not drawn) [Compound 230]
FALSE

Field entry: CCCCCCCCC(CCCCCCCC)CNC(=O)CCCCCN(CCO)CCN(CCCCCC(=O)OCC(CCCCCCCC)CCCCCCCC)C1CCCCCC1 [Compound 17]
FALSE

Please examine the following record next.
Hi, just wondering whether CCCCCCCCC(CCCCCCCC)CNC(=O)CCCCCN(CC=C(C)C)CCN(CCO)CCCCCC(=O)NCC(CCCCCCCC)CCCCCCCC [Compound 122] shows polydispersity of 0.07 or higher.
FALSE

----------
// reported size (nm) for each item listed
- protocol.notes: Lipid nanoparticle size and polydispersity by dynamic light scattering
- Format: physicochemical
- test.settings: LNP of lipid/DSPC/cholesterol/PEG-lipid 50:10:38.5:1.5 encapsulating hEPO mRNA
I only need the number, in nm, no unit after it.

Query (compound): CCCCCCCCOC(CCCCCN(CCO)CCN(CCCCCC(=O)OCC(CCCCCC)CCCCCCCC)C1CCC1)OCCCCCCCC (stereo not drawn) [Compound 201] ; field requested: size (nm)
91.64

How about this compound: CCCCCCCCCCCOC(=O)CCCCCN(CCN(CCO)CCCCCOC(=O)N(CCCCCCCC)CCCCCCCC)C1CCCCC1 [Compound 99]
87.73

How about this compound: CCCCCCCC(=O)OCC(CCCCN(CC=C(C)C)CCCCN(CCO)CCCCC(COC(=O)CCCCCCC)COC(=O)CCCCCCC)COC(=O)CCCCCCC [Compound 203]
131.9

Next:
size (nm) lookup needed for CCCCCCCCCCCOC(=O)CCCCCN(CCN(CCO)CCCCCOC(=O)OCC(CCCCCCCC)CCCCCCCC)C1CCCCC1 [Compound 128] , thanks.
60.57

Please give the result for CCCCCCCCC(CCCCCC)CNC(=O)CCCCCN(CC=C(C)C)CCN(CCO)CCCCC(COC(=O)CCCCCCC)COC(=O)CCCCCCC (stereo not drawn) [Compound 149] too.
78.75

// next record CCCCCCCCC(CCCCCCCC)CNC(=O)CCCCCN(CCO)CCN(CCCCCC(=O)OCC(CCCCCCCC)CCCCCCCC)C1CCCCCC1 [Compound 17]
58.8

----------
- protocol.notes: Apparent pKa of LNP formulations, TNS fluorescence assay
- Format: physicochemical
- test.settings: LNP cationic lipid/DSPC/cholesterol/DMG-PEG 50/10/38.5/1.5 mol %
metric.name: Apparent Pka
Respond using a number only.

Entry under review: `CCCCCCCCC(CCCCCCCC)CNC(=O)CCCCCN(CCO)CCN(CCCCCC(=O)OCC(CCCCCCCC)CCCCCCCC)C1CCCCCC1` . Reported Apparent Pka?
6.671

Now this one: CCCCCCCCOC(CCCCCN(CCO)CCN(CCCCCC(=O)OCC(CCCCCC)CCCCCCCC)C1CCC1)OCCCCCCCC (stereo not shown)
6.226

Can you handle `CCCCCCCCC(CCCCCCCC)COC(=O)CCCCCN(CC=C(C)C)CCN(CCO)CCCCCC(=O)OCC(CCCCCCCC)CCCCCCCC` next?
6.159

Lookup CCCCCCCCC(CCCCCC)CNC(=O)CCCCCCN(CCO)CCN(CCCCC(COC(=O)CCCCCCC)COC(=O)CCCCCCC)C1CCCCCC1 (stereo not shown)
6.567

Now consider CCCCCCCCC(CCCCCCCC)COC(=O)CCCCCN(CCO)CCN(CCCCCC(=O)OCC(CCCCCCCC)CCCCCCCC)C1CCOC1 (stereo not shown) .
6.305

Can you check `CCCCCCCCCCCCCCCCOC(=O)CCCCCN(CCN(CCO)CCCCCC(=O)OCC(CCCCCCCC)CCCCCCCC)C1CCCCCCC1` next?
6.255

Also `CCCCCCCCCCC(=O)OCC(CCCCN(CCO)CCN(CCCCC(COC(=O)CCCCCCCCCC)COC(=O)CCCCCCCCCC)C1CCC1)COC(=O)CCCCCCCCCC` ?
6.537

Same again, this time with CCCCCCCCC(CCCCCC)CNC(=O)CCCCCCCN(CCO)CCN(CCCCC(COC(=O)CCCCCCC)COC(=O)CCCCCCC)C1CCCCC1 (stereo not shown)
6.545

Check CCCCCCCCC(CCCCCC)CNC(=O)CCCCCN(CCCCCO)CCN(CCCCC(COC(=O)CCCCCCC)COC(=O)CCCCCCC)C1CCCC1 (stereo not shown) too.
6.748

Follow-up entry: CCCCCCCCC(CCCCCC)CNC(=O)CCCCCN(CC=C(C)C)CCN(CCO)CCCCC1COC(C(CCCCCC)CCCCCCCC)OC1 (stereo not shown)
6.586

More entries:
Consider the molecule shown here: `CCCCCCCCC(CCCCCCCC)COC(=O)CCCCCN(CCN(CCO)CCOCCC(=O)OCC(CCCCCCCC)CCCCCCCC)C1CCC1` What is its recorded Apparent Pka?
6.293

Consider next the molecule `CCCCCCCC(=O)OCC(CCCCN(CCO)CCCCN(CCCCC(COC(=O)CCCCCCC)COC(=O)CCCCCCC)C1CCCCC1)COC(=O)CCCCCCC` in the same way.
6.593

Then this molecule: `CCCCCCCCC(CCCCCCCC)COC(=O)CCCCCN(CCO)CCN(CCCCCOC(=O)N(CCCCCCCC)CCCCCCCC)C1CCCCC1`
6.226

Same question, `CCCCCCCCC(CCCCCCCC)COC(=O)CCCCCN(CCO)CCN(CCCCCC(=O)OCC(CCCCCCCC)CCCCCCCC)Cc1ccc(C)cc1` this time
5.740

Lookup `CCCCCCCCCCCCCCCCCCOC(=O)CCCCCN(CCN(CCO)CCCCCC(=O)OCC(CCCCCCCC)CCCCCCCC)C1CCCCC1`
6.328

# iterate: `CCCCCCCCCCCOC(=O)CCCCCN(CCO)CCN(CCCCCC(=O)OCC(CCCCCCCC)CCCCCCCC)C1CCCCC1`
6.402

Follow-up item: `CCCCCCCCCCCOC(=O)CCCCCN(CCN(CCO)CCCCCC(=O)OCC(CCCCCCCC)CCCCCCCC)C1CCCCC1`
6.361

// repeat for `CCCCCCCCC(CCCCCCCC)COC(=O)CCCCCN(CCO)CCN(CCCCCC(=O)OCC(CCCCCCCC)CCCCCCCC)C1CCC(C)(C)CC1` and report
5.708

And what about the molecule `CCCCCCCC(=O)OCC(CCCCN(CC=C(C)C)CCCCN(CCO)CCCCC(COC(=O)CCCCCCC)COC(=O)CCCCCCC)COC(=O)CCCCCCC` ?
6.874

Next up: `CCCCCCCCCOC(=O)CCCCCN(CCN(CCO)CCCCCC(=O)OCC(CCCCCCCC)CCCCCCCC)C1CCCCC1`
6.407

# repeat for CCCCCCCCC(CCCCCCCC)COC(=O)CCCCCN(CCCCCC)CCN(CCCCCC(=O)OCC(CCCCCCCC)CCCCCCCC)C1CCC(O)CC1 (stereo not shown)
5.872
